# Tested on: AgSho1
# Assay summary: SPOT peptide array binding signal intensity (averaged, normalized) (arbitrary units (background-subtracted, floor 0; scale differs between SH3 domains)); higher = stronger binding of the SH3 domain to the peptide
In this scheme, each record receives a class according to its SPOT peptide array binding signal intensity; the ranges are low range = under 10, mid range = from 10 up to 100, high range = 100 and over

{"Binder": "PELAPKREAPKPPAN", "Cat": "low range"}
{"Binder": "NLPKRKPPKLQGPFS", "Cat": "mid range"}
{"Binder": "NGRRRPKFRVQLSGN", "Cat": "high range"}
{"Binder": "KRKRFNLLLPKPYLT", "Cat": "mid range"}
{"Binder": "SRQAIPPPVPNRPGG", "Cat": "low range"}

// query Field: class (SPOT peptide array binding signal intensity) — entry: `ANNQGPPNLPARDKS`
// result low range

// query # classify by SPOT peptide array binding signal intensity band: `QGYPRQPQRPQRYHP`
// result low range

// query Note: place this binder into its band. Item: `RRGPAPPPPPRASRP`
// result mid range

// query Which category does the recorded SPOT peptide array binding signal intensity put `IKTRSVPKIPSIESV` in?
// result low range

// query Band for `NFFRKKLGIPRKLKR` ?
// result mid range

From: the supplement of paper PMC4466140
